Origin of values: PubChem BioAssay (NCI)

Hi there, I'd appreciate the recorded growth for every entry that follows.
Tested on: HCC-2998 colon
Assay: NCI-60 one-dose screen, 48 h (100 = growth as untreated, 0 = no growth, -100 = all killed)
Conditions: 10 µM unless noted
About 83,000 compounds went through this panel and 20% of them were active in at least one assay; those are over-represented in the sample as a whole.
Provide the reading as a plain figure in %.

## Task Indicate the recorded growth value for this molecule: CCC[S@](=O)c1ccc2nc(NC(=O)OC)[nH]c2c1
## Result 105

## Task Answer with reported growth of Cc1cccc(NC(=O)c2sc3nc4c(cc3c2N)CN(Cc2ccccc2)CC4)c1C
## Result 55.8

## Task Identify growth associated with the molecule CC1=C/C(=N\N=C2/C=C(C)CC(C)(C)C2)CC(C)(C)C1
## Result 94.5

## Task Answer with the recorded growth of CCOC(=O)/C=C1\SC(=Nc2ccc(C#N)cc2)N(CCN2C(=O)/C(=C/C(=O)OCC)SC2=Nc2ccc(C#N)cc2)C1=O only.
## Result 20.6

## Task Output growth of Cc1ccc(CS/C(=C\c2ccc([N+](=O)[O-])cc2)C(=O)c2ccc(F)cc2)cc1
## Result 83.7

## Task In one line, give reported growth of the entry O=C1CC(c2ccc(O)c(O)c2)Oc2cc(O)c([C@@H]3O[C@H](CO)[C@@H](O)[C@H](O)[C@H]3O)c(O)c21 (stereo partly drawn) .
## Result 108

## Task Output growth of COC(=O)c1nc(-c2ccccc2)oc1S(=O)(=O)n1nc(-c2ccccc2)cc1N
## Result 108

## Task Fill in reported growth for this entry: CCCCC1=c2c([nH]c3ccc(OC)cc23)=NC2C=CC=NC12 (stereo not drawn)
## Result 97.1

----------
Tested on: SK-OV-3 ovarian
Test: NCI-60 one-dose screen, 48 h (100 = growth as untreated, 0 = no growth, -100 = all killed)
Conditions: 10 µM unless noted
Compounds without any hit were thinned out: in the full panel of roughly 83,000, 20% have a hit.
Classify: 1.0 when growth is strictly less than 90%; 0.0 when growth is not.

## Task Determine if CC(=O)c1cc2c(N)c(C(=O)Nc3ccccn3)sc2nc1C shows growth strictly lower than 90%.
## Result 1.0

## Task Quick check: does Cc1cc(C)nc(NS(=O)(=O)c2ccc(Nc3ccc4c5c(n(CCCN(C)C)c(=O)c4c3)-c3ccccc3C5=O)cc2)n1 have growth under 90%?
## Result 0.0

## Task In plain terms, does CC(C)C[C@H](C(=O)O)N(C)C(=O)[C@@H]1CCCN1C(=O)[C@H](C)OC(=O)[C@H](CCC(N)=O)NC(=O)[C@@H]1CCC(=O)N1 come in under 90% for growth?
## Result 0.0

## Task Criterion: growth strictly below 90%. Is it met by COC1=CC=CC2(OC)C3(O)CCCc4cccc(c43)N3C(=O)COC132 (stereo not given) ?
## Result 0.0

## Task Hello, is growth of the following molecule strictly smaller than 90%? COc1ccc2nc(-c3ccc(Cl)cc3)cc(C(=O)N3N=C(c4ccc(N)cc4)CC3c3ccccc3)c2c1 (stereo not given)
## Result 1.0

## Task Consider O=S(=O)(Nc1nccs1)c1ccc(Nc2nc(-c3ccncc3)cs2)cc1 . Does its growth lie strictly below 90%?
## Result 0.0

## Task A record lists COc1ccccc1-c1ccc2nc(NC(=O)Nc3cc(C(F)(F)F)cc(C(F)(F)F)c3)sc2c1 . Is its growth below 90%?
## Result 1.0

## Task Identify whether the molecule Cc1cc(C)c(NC(=O)c2sc3nc4c(cc3c2N)CCCCCC4)c(C)c1 records growth below 90%.
## Result 1.0

## Task Lab note: growth threshold 90%. Does this molecule come in strictly under it? CN(C)CCCn1c2c(c3cc(-c4ccco4)ccc3c1=O)C(=O)c1ccccc1-2
## Result 0.0

----------
System: U251 CNS
Experiment: NCI-60 one-dose screen, 48 h
Conditions: 10 µM unless noted
About 83,000 compounds went through this panel and 20% of them were active in at least one assay; those are over-represented in the sample as a whole. The source made the active and inactive calls. The calls were made as follows: active = growth percent below 10; inactive = the rest.
Lab note: assign the record to one of active, inactive

## Task Assay outcome for N#Cc1ccc(N2Cc3cc(Cl)ccc3OC3=C2C(=O)N(Cc2ccccc2)C3=O)cc1 : what was it?
## Result active

## Task Answer briefly: the call reported for c1cc(CNC23CC4CC(CC(C4)C2)C3)cc(C[N+](Cc2cccc(CNC34CC5CC(CC(C5)C3)C4)c2)(Cc2cccc(CNC34CC5CC(CC(C5)C3)C4)c2)Cc2cccc(CNC34CC5CC(CC(C5)C3)C4)c2)c1 (centres undefined) in this assay.
## Result inactive

## Task Status in this test for O=Cc1[nH]c(Sc2ccccc2)c2ccccc12 ?
## Result inactive

## Task Check the results log: what was the call for CCOC(=O)CC[C@H](NC(=O)c1ccc(NC)c2ccccc12)C(=O)OCC ?
## Result inactive

## Task Recorded call for Cc1cccc(C)c1NCc1nnc(-c2ccc(O)cc2)o1 ?
## Result inactive

## Task Recorded call for C=C(C)[C@@H]1CC[C@]2(C(=O)O)CC[C@]3(C)[C@H](CC[C@@H]4[C@@]5(C)C[C@@H](CC#Cc6ccccc6C)C(=O)C(C)(C)[C@@H]5CC[C@]43C)[C@@H]12 ?
## Result inactive

## Task Entry COC(=O)CCc1n(Cc2ccc3ccccc3c2)c2ccccc2[n+]1Cc1ccc2ccccc2c1 : call = ?
## Result active

## Task In this assay, the call recorded for C=C(C)[C@@H]1CC[C@]2(C(=O)OCCOCCOCC[P+](c3ccccc3)(c3ccccc3)c3ccccc3)CC[C@]3(C)[C@H](CC[C@@H]4[C@@]5(C)CC[C@H](OC(C)=O)C(C)(C)[C@@H]5CC[C@]43C)[C@@H]12 was what?
## Result active

## Task Dear all, I need the recorded test outcome for N#Cc1ccc(C2C3=C(CCCC3=O)OC3=C2C(=O)c2ccccc2C3=O)cc1 (centres undefined) , thank you.
## Result inactive

## Task Can you look up the reported call for Cc1cccc2nc3c(n12)C(=O)C(=O)c1ccccc1-3 for me?
## Result inactive

## Task For CN(C)CCCn1c2c(c3cc(-c4ccco4)ccc3c1=O)C(=O)c1ccccc1-2 , which call appears in the assay record?
## Result inactive

## Task What did this assay record as the result for COC(=O)c1nc(-c2ccccc2)oc1S(=O)(=O)n1nc(C)cc1N ?
## Result inactive

## Task Give the logged outcome of this assay for the following compound: CCOC(=O)C1CCN(S(=O)(=O)/N=C2/NC(=O)NC2=C(Cl)Cl)CC1
## Result active

## Task Fill in: this test's call for NC(=O)c1ccc2nc3c(n2c1)C(=O)C(=O)c1ccccc1-3 is ___
## Result active

## Task Dear all, I need the recorded test outcome for O=c1[nH]nc(-c2ccc(Br)cc2)c2sc(NC(=S)Nc3ccc(Cl)cc3)nc12 , thank you.
## Result inactive

## Task State the result this test recorded for C[C@H]1[C@H](C)CC[C@]2(C(=O)OCCCC[P+](c3ccccc3)(c3ccccc3)c3ccccc3)CC[C@]3(C)C(=CC[C@@H]4[C@@]5(C)CC[C@H](OC(=O)C(Cl)Cl)C(C)(C)[C@@H]5CC[C@]43C)[C@H]12 .
## Result active

## Task Test call for this compound, please: CCOCCc1c(O)nc(SC)[nH]c1=O
## Result inactive

## Task Which outcome did this test record for the compound Cn1cc(-c2ccc3c(c2)ncn3-c2ccc(CC(=O)Nc3cc(C(C)(C)C)on3)cc2)cn1 ?
## Result inactive

## Task Could you kindly confirm the outcome this assay logged for Nc1c(C(=O)Nc2ccccc2)sc2nc3c(cc12)CN(C(=O)OCc1ccccc1)CC3 ?
## Result inactive

----------
For each entry below, report its growth value.
System: SNB-19 CNS
Test: NCI-60 one-dose screen, 48 h (100 = growth as untreated, 0 = no growth, -100 = all killed)
Settings: 10 µM unless noted
The panel holds about 83,000 compounds, 20% with a hit somewhere; the sample as a whole holds those more often.
Write the value in % as a bare number.

## Task Hello, please tell me recorded growth for this one: COc1cc(NC(=O)c2cc(O)c(C/C=C(\C)CCC=C(C)C)c(O)c2)cc2c1O[C@]1(C)CC[C@@H](O)C(C)(C)[C@H]1C2
## Result 8.74

## Task Report growth for O=c1[nH]nc(-c2ccc(Br)cc2)c2sc(NC(=S)Nc3ccc(Cl)cc3)nc12
## Result 103

## Task For O=C(Nc1ccc(S(=O)(=O)NC2CCCCCC2)cc1)C(c1ccccc1)S(=O)(=O)c1ccc(F)cc1 (stereo not given) , write its growth.
## Result 26.2

## Task # return recorded growth for input COc1ccc(C(=O)c2cc(OC)c(OC)c(OC)c2)cc1OC(=O)CCl
## Result 31.3

## Task For the molecule FC(F)(F)c1ccc2c(Nc3cccc(C4CC(c5ccccc5)=NN4c4ccc(Cl)cc4)c3)ccnc2c1 (stereo not given) , give its measured growth value.
## Result 41.4

## Task Report growth for Cn1c2ccccc2c2c(OC(=O)c3ccccc3)c3c(nc21)-c1ccccc1C3
## Result 105

## Task State its growth: C=C1C(=O)O[C@H]2[C@H]1CC/C(COC(=O)c1cc3ccccc3o1)=C\CC[C@@]1(C)O[C@@H]21
## Result 16.7

## Task State, in one line, measured growth of O=C1Nc2ccccc2C12C=C(c1ccccc1)Nc1c2c(-c2ccccc2)nn1-c1ccccc1 (stereo not given)
## Result 64.3

## Task # return recorded growth for entry CC1CCCN(CCCCCOc2ccc3oc4ccccc4c(=O)c3c2)C1 (stereo not given)
## Result 83.6

## Task Assign growth to the following record: COc1ccc(-c2nnc(N3CCN(C(=O)CN4CCN(c5ccc(OC)cc5)CC4)CC3)nc2-c2ccc(OC)cc2)cc1
## Result 96.1
